Target: PB2 cap binding domain (CBD) of an avian H5N1 influenza virus (Influenza A virus, UniProt Q9Q0V1)
Sequence (Q9Q0V1 318-483 limits assumed): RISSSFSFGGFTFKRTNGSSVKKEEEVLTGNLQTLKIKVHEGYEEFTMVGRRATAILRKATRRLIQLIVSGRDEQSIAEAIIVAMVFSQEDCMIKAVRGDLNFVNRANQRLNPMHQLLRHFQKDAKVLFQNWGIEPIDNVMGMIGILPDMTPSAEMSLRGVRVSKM
Experiment: biochemical
Conditions: Biacore KD
pKd: −log10 of the molar value.
This section presents compounds with their documented pKd values.

compound	relation sign	pKd
CC(C)N1CCn2c(CNC(=O)CNC(=O)c3ccc4n[nH]c(=O)n4c3)cc(=O)c(O)c2C1=O	=	4.85
CC(C)[C@H](Nc1nc(-c2n[nH]c3ncc(F)cc23)ncc1F)C(=O)NCc1cc(=O)c(O)c2n1CCN(C(C)C)C2=O	=	5.00
CC(C)N1CCn2c(COCCOc3nccc4[nH]ncc34)cc(=O)c(O)c2C1=O	<	4.00
CC(C)N1CCn2c(CNC(=O)CNC(=O)c3c[nH]c4ncc(C5CC5)nc34)cc(=O)c(O)c2C1=O	=	5.40
CC(C)N1CCn2c(COC(=O)c3c[nH]c4ncc(C5CC5)nc34)cc(=O)c(O)c2C1=O	=	5.03
CC(C)[C@H](NC(=O)c1cccn2c(=O)[nH]nc12)c1cc(=O)c(O)c2n1CCN(C(C)C)C2=O	=	3.79
CC(C)N1CCn2c(CNC(=O)CC(Nc3nc(-c4n[nH]c5ncc(F)cc45)ncc3F)C3CC3)cc(=O)c(O)c2C1=O (stereo not drawn)	=	5.09
CC(C)N1CCn2c(CNC(=O)c3cccc(NC(=O)c4n[nH]c5ncccc45)c3)cc(=O)c(O)c2C1=O [drawing 28]	=	4.58
CC(C)N1CCn2c(CNC(=O)[C@H](NC(=O)c3cccn4c(=O)[nH]nc34)c3ccccc3)cc(=O)c(O)c2C1=O	<	4.00
CC(C)N1CCn2c(CNC(=O)c3cccc(NC(=O)c4n[nH]c5ncccc45)c3)cc(=O)c(O)c2C1=O [drawing 29]	=	4.71
CC(C)N1CCn2c(CNc3cc4[nH]ncc4c(Cl)n3)cc(=O)c(O)c2C1=O	=	3.52
CC(C)N1CCn2c(CNC(=O)c3cccn4c(=O)[nH]nc34)cc(=O)c(O)c2C1=O	<	4.30
CC(C)N1CCn2c(CNC(=O)c3ccc4n[nH]c(=O)n4c3)cc(=O)c(O)c2C1=O	=	3.73
CC(C)N1CCn2c(CNC(=O)c3cccc(NC(=O)c4ccc5n[nH]c(=O)n5c4)c3)cc(=O)c(O)c2C1=O	=	4.66
CC(C)N1CCn2c(CNC(=O)c3n[nH]c4ncccc34)cc(=O)c(O)c2C1=O	<	4.00
CC(C)N1CCn2c(CNC(=O)[C@H](NC(=O)c3ccc4n[nH]c(=O)n4c3)c3ccccc3)cc(=O)c(O)c2C1=O	<	4.00
CC(C)N1CCn2c(CNCCOC(=O)c3cccn4c(=O)[nH]nc34)cc(=O)c(O)c2C1=O	<	4.00
CC(C)N1CCn2c(COC(=O)c3cccn4c(=O)[nH]nc34)cc(=O)c(O)c2C1=O	<	4.00

###

This section presents molecules with their documented log10 IC50 values.
Target: influenza A virus (IAV) PA-Nter fragment (amino acids 1-209) (Influenza A virus)
readout type: log10 IC50 (log10 of the value in nM)

molecule	system name	recorded number
CC(C)[C@H](NC(=O)c1c[nH]c2ncc(C3CC3)nc12)C(=O)NCc1cc(=O)c(O)c2n1CCN(C(C)C)C2=O	influenza A virus (IAV) PA-Nter fragment (amino acids 1-209) (Influenza A virus)	2.88
CC(C)N1CCn2c(CNC(=O)[C@@H](Cc3cccc(Cl)c3)NC(=O)c3ccc4n[nH]c(=O)n4c3)cc(=O)c(O)c2C1=O	influenza A virus (IAV) PA-Nter fragment (amino acids 1-209) (Influenza A virus)	3.46
CC(C)N1CCn2c(CNc3cc4[nH]ncc4c(Cl)n3)cc(=O)c(O)c2C1=O	influenza A virus (IAV) PA-Nter fragment (amino acids 1-209) (Influenza A virus)	2.93
CCC(NC(=O)c1cccn2c(=O)[nH]nc12)C(=O)NCc1cc(=O)c(O)c2n1CCN(C(C)C)C2=O (stereo not drawn)	influenza A virus (IAV) PA-Nter fragment (amino acids 1-209) (Influenza A virus)	2.63
CC(C)N1CCn2c(CNC(=O)[C@H](Cc3cccc(Cl)c3)NC(=O)c3cccn4c(=O)[nH]nc34)cc(=O)c(O)c2C1=O	influenza A virus (IAV) PA-Nter fragment (amino acids 1-209) (Influenza A virus)	2.46
CC(C)N1CCn2c(CNC(=O)CNC(=O)c3c[nH]c4ncc(C5CC5)nc34)cc(=O)c(O)c2C1=O	influenza A virus (IAV) PA-Nter fragment (amino acids 1-209) (Influenza A virus)	2.43

###

Molecular target: influenza A virus (IAV) PA-Nter fragment (amino acids 1-209) (Influenza A virus)

compound	unit	IC50
CC(C)[C@H](NC(=O)c1cccn2c(=O)[nH]nc12)c1cc(=O)c(O)c2n1CCN(C(C)C)C2=O	nM	830
CC(C)N1CCn2c(CNc3cccc4n[nH]c(=O)n34)cc(=O)c(O)c2C1=O	nM	936
CC(C)N1CCn2c(CNCCNc3nccc4[nH]ncc34)cc(=O)c(O)c2C1=O	nM	1460
CC(C)N1CCn2c(CNC(=O)c3cccc(NC(=O)c4ccc5n[nH]c(=O)n5c4)c3)cc(=O)c(O)c2C1=O	nM	1660
CC(C)N1CCn2c(CNC(=O)[C@@H](Cc3cccc(Cl)c3)NC(=O)c3n[nH]c4ncccc34)cc(=O)c(O)c2C1=O	nM	1090
CC(C)N1CCn2c(CNC(=O)CCCCCNc3nc(-c4n[nH]c5ncc(F)cc45)ncc3F)cc(=O)c(O)c2C1=O	nM	19700
CC(C)N1CCn2c(CNC(=O)c3n[nH]c4ncccc34)cc(=O)c(O)c2C1=O	nM	400
CC(C)N1CCn2c(CNC(=O)c3cccc(NC(=O)c4n[nH]c5ncccc45)c3)cc(=O)c(O)c2C1=O [drawing 28]	nM	1510

###

Biological target: PB2 cap binding domain (CBD) of an avian H5N1 influenza virus (Influenza A virus, UniProt Q9Q0V1)
Experiment: biochemical
Conditions: Biacore KD
pKd: −log10 of the molar value.
Binary call on pKd: Condition met from 5 upward, Condition not met beneath that.

compound	class label
CC(C)N1CCn2c(CNC(=O)[C@H](Cc3cccc(Cl)c3)NC(=O)c3cccn4c(=O)[nH]nc34)cc(=O)c(O)c2C1=O	Condition not met
CC(C)[C@H](NC(=O)c1c[nH]c2ncc(C3CC3)nc12)C(=O)NCc1cc(=O)c(O)c2n1CCN(C(C)C)C2=O	Condition not met
CC(C)N1CCn2c(CNC(=O)C3(NC(=O)c4cccn5c(=O)[nH]nc45)CCCCC3)cc(=O)c(O)c2C1=O	Condition not met
CC(C)N1CCn2c(CNc3nccc4[nH]ncc34)cc(=O)c(O)c2C1=O	Condition not met
CC(C)N1CCn2c(CNc3cccc4n[nH]c(=O)n34)cc(=O)c(O)c2C1=O	Condition not met
CCC(NC(=O)c1cccn2c(=O)[nH]nc12)C(=O)NCc1cc(=O)c(O)c2n1CCN(C(C)C)C2=O (centres unmarked)	Condition met
CC(C)N1CCn2c(CNC(=O)CCCCCNC(=O)c3c[nH]c4ncc(C5CC5)nc34)cc(=O)c(O)c2C1=O	Condition met

###

Tested on: influenza A virus (IAV) A/Aichi/2/68 (H3N2)
Experiment: microbe, parasite or virus in culture
Type: cell-based, influenza A virus A/Aichi/2/68 (H3N2) on MDCK cells
Conditions: H3N2, MDCK, 48 h, read-out: CPE IC50
pIC50: −log10 of the molar value.
This section presents compounds with their documented pIC50 values.

compound	pIC50
CC(C)N1CCn2c(CNC(=O)CNC(=O)c3c[nH]c4ncc(C5CC5)nc34)cc(=O)c(O)c2C1=O	< 4.30
CC(C)N1CCn2c(COC(=O)c3cccn4c(=O)[nH]nc34)cc(=O)c(O)c2C1=O	< 4.30
CC(C)N1CCn2c(CNC(=O)C[C@H](NC(=O)c3c[nH]c4ncc(C5CC5)nc34)c3ccccc3)cc(=O)c(O)c2C1=O	< 4.47
CC(C)N1CCn2c(CNc3cccc4n[nH]c(=O)n34)cc(=O)c(O)c2C1=O	< 4.30
CC(C)N1CCn2c(CNC(=O)c3cccc(Nc4nccc5[nH]ncc45)c3)cc(=O)c(O)c2C1=O	4.66
CC(C)N1CCn2c(COC(=O)c3c[nH]c4ncc(C5CC5)nc34)cc(=O)c(O)c2C1=O	4.16
CC(C)N1CCn2c(CNC(=O)[C@H](NC(=O)c3cccn4c(=O)[nH]nc34)c3ccccc3)cc(=O)c(O)c2C1=O	< 4.30
CC(C)N1CCn2c(CNC(=O)CCCCCNc3nc(C4=CN5C(=O)N=NC5C=C4)ncc3F)cc(=O)c(O)c2C1=O (centres unmarked)	< 4.60
CC(C)N1CCn2c(CNC(=O)c3c[nH]c4ncc(C5CC5)nc34)cc(=O)c(O)c2C1=O	< 4.60
CC(C)N1CCn2c(CNc3cc4[nH]ncc4c(Cl)n3)cc(=O)c(O)c2C1=O	< 4.30
CC(C)N1CCn2c(CNC(=O)[C@@H](Cc3cccc(Cl)c3)NC(=O)c3n[nH]c4ncccc34)cc(=O)c(O)c2C1=O	< 4.30
CC(C)N1CCn2c(CNC(=O)[C@H](NC(=O)c3c[nH]c4ncc(C5CC5)nc34)c3ccccc3)cc(=O)c(O)c2C1=O	5.09
CC(C)N1CCn2c(CNCCNc3nccc4[nH]ncc34)cc(=O)c(O)c2C1=O	< 4.30
CC(C)[C@H](Nc1nc(C2=CN3C(=O)N=NC3C=C2)ncc1F)C(=O)NCc1cc(=O)c(O)c2n1CCN(C(C)C)C2=O (some centres unmarked)	< 4.30
CC(C)N1CCn2c(CNC(=O)c3ccc4n[nH]c(=O)n4c3)cc(=O)c(O)c2C1=O	< 4.30
CCC(Nc1nc(-c2n[nH]c3ncc(F)cc23)ncc1F)C(=O)NCc1cc(=O)c(O)c2n1CCN(C(C)C)C2=O (centres unmarked)	< 4.30
CC(C)[C@@H](CC(=O)NCc1cc(=O)c(O)c2n1CCN(C(C)C)C2=O)Nc1nc(C2=CN3C(=O)N=NC3C=C2)ncc1F (some centres unmarked)	< 5.89
CC(C)N1CCn2c(CNC(=O)C3(NC(=O)c4c[nH]c5ncc(C6CC6)nc45)CCCCC3)cc(=O)c(O)c2C1=O	< 4.30
CCC(NC(=O)c1c[nH]c2ncc(C3CC3)nc12)C(=O)NCc1cc(=O)c(O)c2n1CCN(C(C)C)C2=O (centres unmarked)	< 4.30
CC(C)N1CCn2c(CNC(=O)C3(NC(=O)c4cccn5c(=O)[nH]nc45)CCCCC3)cc(=O)c(O)c2C1=O	< 4.30
CC(C)N1CCn2c(CNC(=O)CCCCCNC(=O)c3c[nH]c4ncc(C5CC5)nc34)cc(=O)c(O)c2C1=O	4.50
CC(C)N1CCn2c(CNC(=O)c3cccc(NC(=O)c4ccc5n[nH]c(=O)n5c4)c3)cc(=O)c(O)c2C1=O	4.45
CC(C)N1CCn2c(CNC(=O)[C@H]3CCC[C@@H](Nc4nc(-c5n[nH]c6ncc(F)cc56)ncc4F)C3)cc(=O)c(O)c2C1=O	4.82
CC(C)N1CCn2c(CNC(=O)c3cccn4c(=O)[nH]nc34)cc(=O)c(O)c2C1=O	< 4.30
CCC(NC(=O)c1cccn2c(=O)[nH]nc12)C(=O)NCc1cc(=O)c(O)c2n1CCN(C(C)C)C2=O (centres unmarked)	< 4.30
CC(C)[C@H](NC(=O)c1c[nH]c2ncc(C3CC3)nc12)C(=O)NCc1cc(=O)c(O)c2n1CCN(C(C)C)C2=O	4.38
CC(C)N1CCn2c(CNC(=O)[C@H](NC(=O)c3ccc4n[nH]c(=O)n4c3)c3ccccc3)cc(=O)c(O)c2C1=O	< 4.30
CC(C)N1CCn2c(CNC(=O)CNC(=O)c3ccc4n[nH]c(=O)n4c3)cc(=O)c(O)c2C1=O	< 4.30
CC(C)[C@H](NC(=O)c1cccn2c(=O)[nH]nc12)c1cc(=O)c(O)c2n1CCN(C(C)C)C2=O	< 4.30
CC(C)N1CCn2c(CNCCOC(=O)c3cccn4c(=O)[nH]nc34)cc(=O)c(O)c2C1=O	< 4.30
CC(C)N1CCn2c(CNCCNc3cc4[nH]ccc4c(Cl)n3)cc(=O)c(O)c2C1=O	< 4.30
CC(C)N1CCn2c(CNC(=O)[C@@H](Cc3cccc(Cl)c3)NC(=O)c3ccc4n[nH]c(=O)n4c3)cc(=O)c(O)c2C1=O	4.29

FYI, the data here is from patent US9359351B2.
